settings: Liquid; Ebulliometric method (Recirculating still)
Below is a list of entries, each paired with its recorded Normal boiling temperature value.
Write the answer as a number in °C, unit excluded.

Please review the entries below; each comes with its answer.
[
  {
    "Molecule": "CCOC=O [ethyl methanoate]",
    "Normal boiling temperature [°C]": 54.14
  },
  {
    "Molecule": "CCOC(=O)CC [ethyl propanoate]",
    "Normal boiling temperature [°C]": 98.76
  },
  {
    "Molecule": "CCCC(=O)OCC [ethyl butanoate]",
    "Normal boiling temperature [°C]": 121.02
  }
]

input: Which Normal boiling temperature is reported for this molecule? CCOC(C)=O [ethyl acetate]
output: 77.10
